These measurements were taken from patent US8349827B2.

Test system: MDA-MB-231
experimentDescription: MTS assay, MDA-MB-231 cells
Assay type: cell-based
details: Homo sapiens, 72 hours
I'd be grateful if you could share measured inhibition at 10 µM for these entries.

Ask | Give the reported value of inhibition at 10 µM for this record: c1ccc(CNc2ncc3c(n2)-c2cccnc2Nc2cnccc2-3)nc1 [Example 49]
Reply | 80 to 100%

Ask | Give the reported value of inhibition at 10 µM for this record: CCC(CC)Nc1ncc2c(n1)-c1cccnc1Nc1cnccc1-2 [Example 18]
Reply | < 50%

Ask | Give the reported value of inhibition at 10 µM for this record: CCCCNc1ncc2c(n1)-c1cccnc1Nc1cnccc1-2 [Example 7]
Reply | 50 to 79%

Ask | Give the reported value of inhibition at 10 µM for this record: Clc1cccc(CNc2ncc3c(n2)-c2ccccc2Nc2cnccc2-3)c1 [Example 70]
Reply | 80 to 100%

Ask | Give the reported value of inhibition at 10 µM for this record: Cc1cccc2c(CCNc3ncc4c(n3)-c3cccnc3Nc3cnccc3-4)c[nH]c12 [Example 52]
Reply | < 50%

Ask | Give the reported value of inhibition at 10 µM for this record: Fc1ccc(CNc2ncc3c(n2)-c2cccnc2Nc2ccccc2-3)c(F)c1 [Example 64]
Reply | < 50%

Ask | Give the reported value of inhibition at 10 µM for this record: Fc1ccc(CCNc2ncc3c(n2)-c2cccnc2Nc2cnccc2-3)cc1 [Example 19]
Reply | < 50%

Ask | Give the reported value of inhibition at 10 µM for this record: c1ccc(CCNc2ncc3c(n2)-c2cccnc2Nc2cnccc2-3)cc1 [Example 28]
Reply | < 50%

Ask | Give the reported value of inhibition at 10 µM for this record: Fc1ccc(CNc2ncc3c(n2)-c2ccccc2Nc2cnccc2-3)c(F)c1 [Example 69]
Reply | 80 to 100%

Ask | Give the reported value of inhibition at 10 µM for this record: c1ccc(-c2ccc(CNc3ncc4c(n3)-c3cccnc3Nc3cnccc3-4)cc2)cc1 [Example 34]
Reply | 80 to 100%

Ask | Give the reported value of inhibition at 10 µM for this record: CN(C)CCCCCNc1ncc2c(n1)-c1cccnc1Nc1cnccc1-2 [Example 48]
Reply | 50 to 79%

Ask | Give the reported value of inhibition at 10 µM for this record: FC(F)(F)c1ccc(CNc2ncc3c(n2)-c2cccnc2Nc2cnccc2-3)cc1 [Example 21]
Reply | 80 to 100%

Ask | Give the reported value of inhibition at 10 µM for this record: CCCC(C)Nc1ncc2c(n1)-c1cccnc1Nc1cnccc1-2 (stereo not shown) [Example 5]
Reply | < 50%

Ask | Give the reported value of inhibition at 10 µM for this record: Clc1cccc(CCNc2ncc3c(n2)-c2cccnc2Nc2cnccc2-3)c1 [Example 29]
Reply | < 50%

Ask | Give the reported value of inhibition at 10 µM for this record: Fc1cccc(CNc2ncc3c(n2)-c2cccnc2Nc2cnccc2-3)c1 [Example 39]
Reply | 80 to 100%

Ask | Give the reported value of inhibition at 10 µM for this record: Cc1ccc(CCNc2ncc3c(n2)-c2cccnc2Nc2cnccc2-3)cc1 [Example 16]
Reply | < 50%

Ask | Give the reported value of inhibition at 10 µM for this record: OCCc1cccc(Nc2ncc3c(n2)-c2cccnc2Nc2ccccc2-3)c1 [Example 67]
Reply | < 50%

Ask | Give the reported value of inhibition at 10 µM for this record: Cc1cccc(CNc2ncc3c(n2)-c2cccnc2Nc2cnccc2-3)c1 [Example 40]
Reply | 50 to 79%

Ask | Give the reported value of inhibition at 10 µM for this record: Nc1ccc(-c2ncc3c(n2)-c2cccnc2Nc2cnccc2-3)cc1 [Example 53]
Reply | < 50%
